These entries and their values trace back to patent US20170362301A1.

Target or test system: EGFR on cells (A431, NCI-H292, NCI-H322, NCI-H441) (human, UniProt P00533 25-1210)
Assay protocol: cell-based or functional assay
Observed property: EGF-stimulated EGFR phosphorylation in NCI-H292 cells IC50
// unit must come after the numeric part

Here's what some known entries look like.
Binder | Measured
ECB147v5-PEG24 (designed binder, PEG24-maleimide on the engineered cysteines) MLPAPKNLVVSEVTEDSARLSWDDPWAFYESFLIQYQESEKVGEAIVLTVPGSERSYDLTGLCPGTEYTVSIYGVHNVYKDTNMRGLPLSAIFTTAPAPAPAPAPLPAPKNLVVSRVTEDSARLSWTAPDAAFDSFWIRYFEFLGSGEAIVLTVPGSERSYDLTGLCPGTEYVVNIMSVKGGSISPPLSAIFTTAPAPAPAPAPLAEAKVLANRELDKYGVSDYYKNLINNAKTVEGVKALLDEILAALP | 0.9 nM
ECB147v6-PEG24 (designed binder, PEG24-maleimide on the engineered cysteine) MLPAPKNLVVSEVTEDSARLSWDDPWAFYESFLIQYQESEKVGEAIVLTVPGSERSYDLTGLCPGTEYTVSIYGVHNVYKDTNMRGLPLSAIFTTAPAPAPAPAPLPAPKNLVVSRVTEDSARLSWTAPDAAFDSFWIRYFEFLGSGEAIVLTVPGSERSYDLTGLKPGTEYVVNIMSVKGGSISPPLSAIFTTAPAPAPAPAPLAEAKVLANRELDKYGVSDYYKNLINNAKTVEGVKALLDEILAALP | 1.4 nM

Now for another entry.
Give EGF-stimulated EGFR phosphorylation in NCI-H292 cells IC50 for the following binder: ECB38 (designed binder) MLPAPKNLVVSEVTEDSARLSWDDPWAFYESFLIQYQESEKVGEAIVLTVPGSERSYDLTGLKPGTEYTVSIYGVHNVYKDTNMRGLPLSAIFTTAPAPAPAPAPLPAPKNLVVSRVTEDSARLSWTAPDAAFDSFWIRYFEFLGSGEAIVLTVPGSERSYDLTGLKPGTEYVVNIMGVKGGKISPPLSAIFTTAPAPAPAPAPLAEAKVLANRELDKYGVSDYYKNLINNAKTVEGVKALLDEILAALP
2.3 nM
